# Tested on: ACHN renal
# PROTOCOL: NCI tumour cell line growth inhibition, 48 h; in the data active means GI50 below about 0.43 µM; inactive means the rest
Pick from Yes = active, No = inactive when you respond.

Q: // outcome(item) with item = `O=S(=O)(NC1=NCCN1C(=S)SN1CCn2c1nsc2=S)c1ccc(OC(F)(F)F)cc1`
Ans: No

Q: Record: `Cc1ccc(C(=O)/C(=C/c2ccc([N+](=O)[O-])cc2)SCc2ccc(Cl)cc2)cc1`
Ans: No

Q: Record: CC1=C(C(=O)Nc2ccc(Cl)c(Cl)c2)C(c2cccc(Oc3ccccc3)c2)NC(=S)N1 (stereo unspecified)
Ans: No

Q: Record: `Clc1ccc2c(NCCCCNc3nc(N4CCCCC4)nc4ccccc34)ccnc2c1`
Ans: No

Q: Record: `COC1=CC(=O)c2nc(-c3ccncc3)[nH]c2C1=O`
Ans: No

Q: Record: `COc1ccc2c(C3=C(c4cn(C)c5ccccc45)C(=O)NC3=O)cn(C)c2c1`
Ans: Yes

====

# Test system: CAKI-1 renal
# PROTOCOL: NCI tumour cell line growth inhibition, 48 h
READOUT_NAME: GI50

Q: Quick one: GI50 for OCc1ccc(N2CCC2c2ccc(F)cc2)cc1Cl (stereo not given) ?
Ans: 12.9 µM

Q: Record: `COc1cc(-c2nn(-c3ccc(NC(=O)c4ccc(Cl)c(C(F)(F)F)c4)cc3)cc2-c2ccncc2)ccc1Cl`
Ans: 1.71 µM

Q: Record: `COC1=CC(=O)c2nc(-c3ccncc3)[nH]c2C1=O`
Ans: 86.6 µM

Q: Record: CO[C@H](C(=O)[C@@H](O)[C@@H](C)O)[C@@H]1Cc2cc3cc(O[C@H]4C[C@@H](O[C@H]5C[C@@H](O)[C@H](O)C(C)O5)[C@H](O)C(C)O4)c(C)c(O)c3c(O)c2C(=O)[C@H]1O[C@H]1C[C@@H](O[C@H]2C[C@@H](O[C@H]3C[C@](C)(O)C(=O)C(C)O3)[C@@H](O)C(C)O2)[C@H](O)C(C)O1 (stereo not given in full)
Ans: 0.924 µM

Q: Record: `CCCCCN(CCCCC)CCCNc1c2c(nc3ccc(Cl)cc13)CCCC2`
Ans: 2.18 µM

====

# System: SW-620 colon
# PROTOCOL: NCI tumour cell line growth inhibition, 48 h
READOUT_NAME: TGI

Q: Quick one: TGI for O=C1OCC(O)=C1C(c1ccc(Cl)cc1)c1cc2c(cc1O)OCO2 (stereo not drawn) ?
Ans: > 100 µM

Q: Record: `COC(=O)c1cc2c(n1S(=O)(=O)c1ccc(C)cc1)C(=O)C(=O)c1[nH]cc(C(=O)OCc3ccccc3)c1-2`
Ans: 0.174 µM

Q: Record: `CCCCCN(CCCCC)CCCNc1c2c(nc3ccc(Cl)cc13)CCCC2`
Ans: 8.55 µM

Q: Record: NC(=O)C(c1ccccc1)N1OC2C(=O)N(c3ccccc3)C(=O)C2C1c1c2ccccc2c(Cl)c2ccccc12 (stereo not drawn)
Ans: > 100 µM

Q: Record: `O=C(Nc1ccc(C2=NCCN2)cc1)c1cncc(C(=O)Nc2ccc(C3=NCCN3)cc2)c1`
Ans: > 100 µM

Q: Record: O=C(/C=C/c1ccccc1)NC1C=Nc2ccc(Cl)cc2NC1=O (stereo not drawn)
Ans: 24.2 µM

Q: Record: `CC(C)CCC[C@@H](C)[C@H]1CC[C@H]2[C@@H]3CC=C4C[C@@H](C(C(=O)O)C(=O)O)CC[C@]4(C)[C@H]3CC[C@]12C`
Ans: 1.25 µM

Q: Record: `C=C(CN1CCN(c2ccc(Cl)cc2F)CC1)c1ccc(C(=O)Nc2ccccc2N)cc1`
Ans: > 100 µM

Q: Record: `CC[C@@]1(O)C(=O)OCc2c1cc1n(c2=O)Cc2c-1nc1ccccc1c2/C=N\NC(=O)CN`
Ans: > 100 µM

Q: Record: `O=C1CCC(=O)N1n1c(Cc2ccccc2)n[nH]c1=O`
Ans: > 100 µM

Q: Record: `COC1=CC(c2ccc[nH]2)=N/C1=C\c1[nH]c(C)c(C(=O)OC(C)C)c1C`
Ans: 1.44 µM

Q: Record: COC1CCC(N2C(=O)CNc3ncc(-c4ccc(C(C)(C)O)nc4)nc32)CC1 (stereo not drawn)
Ans: > 37.5 µM

Q: Record: CNC(=O)OCC1=C(COC(=O)NC)C(C)N(c2ccc(OC)cc2)C1 (stereo not drawn)
Ans: > 100 µM

Q: Record: COc1ccc(C(=O)C(C(=O)CCC(=O)Nc2ccc(C)c(C)c2)c2ccc(OC)cc2)cc1 (stereo not drawn)
Ans: > 100 µM

Q: Record: `CN1CCN([C@H]2C[C@H]3[C@@H]4CC=C5C[C@@H](O)CC[C@]5(C)[C@H]4CC[C@]3(C)C2=O)CC1`
Ans: > 100 µM

Q: Record: O=C(CC1(O)C(=O)Nc2c(Cl)cc(Cl)cc21)c1ccc(Br)cc1Br (stereo not drawn)
Ans: 10.7 µM

Q: Record: CNC(=O)C(C)C1CCC2(C)C=CC(=O)C(C)=C2C1O (stereo not drawn)
Ans: > 100 µM

Q: Record: CC(=O)O[C@H]1C(=O)[C@]2(C)[C@@H](OC(=O)OCCC(O)CO)C[C@H]3OC[C@@]3(OC(C)=O)[C@H]2[C@H](OC(=O)c2ccccc2)[C@]2(O)C[C@H](OC(=O)[C@H](O)[C@@H](NC(=O)c3ccccc3)c3ccccc3)C(C)=C1C2(C)C (stereo partly drawn)
Ans: > 46.4 µM

====

# Test system: HCT-15 colon
# PROTOCOL: NCI tumour cell line growth inhibition, 48 h
READOUT_NAME: TGI (µM)
Express it in µM; write the number only.

Q: Give the reported TGI for CC(C)=CC(=O)C1c2cccc(O)c2C(=O)c2c(O)cc(C)cc21 (stereo not given) (system: HCT-15 colon).
Ans: 10.6

Q: Record: `Clc1cc2nsnc2c(Cl)n1`
Ans: 45.6

Q: Record: `COc1cc(-c2nn(-c3ccc(NC(=O)c4ccc(Cl)c(C(F)(F)F)c4)cc3)cc2-c2ccncc2)ccc1Cl`
Ans: 4.21

====

Consider the following molecules; for each one, report its TGI.
# Tested on: KM12 colon
# PROTOCOL: NCI tumour cell line growth inhibition, 48 h

Q: Quick one: TGI for CCOC(=O)C1=C(C)NC(=S)NC1c1ccccc1 (centres undefined) ?
Ans: > 100 µM

Q: Record: `CC1=C(C)[C@@]2(C)O[C@@]2(C)O[C@@]2(C)O[C@@]12C`
Ans: > 100 µM

Q: Record: COC1CCC2C(NS(=O)(=O)c3ccc(C)cc3)CCCC2O1 (centres undefined) (tested in a mixture with another compound)
Ans: > 34.5 µM

Q: Record: `CC(C)CCC[C@@H](C)[C@H]1CC[C@H]2[C@@H]3CC=C4C[C@@H](C(C(=O)O)C(=O)O)CC[C@]4(C)[C@H]3CC[C@]12C`
Ans: 0.292 µM

Q: Record: `CC(C)/C(Cl)=N\OC(=O)Nc1ccc(S(N)(=O)=O)cc1`
Ans: 33.3 µM

Q: Record: COc1ccc(C2c3cc4c(cc3OC(NNS(=O)(=O)c3ccc(C)cc3)C2C)OCO4)cc1 (centres undefined)
Ans: > 100 µM

Q: Record: `Cn1cnc([N+](=O)[O-])c1Sc1nnc(-c2cccnc2)n1C`
Ans: > 100 µM

Q: Record: `CC[C@@]1(C[C@H]2C[C@@]3(C(=O)OC)c4[nH]c5ccccc5c4CCN3C2=O)COC2(CCCCC2)O1`
Ans: 66.9 µM

Q: Record: CCN(CCO)CC1CCCC2CCCCC21 (centres undefined)
Ans: > 100 µM

====

Consider the following compounds; for each one, report its TGI.
# System: 786-0 renal
# PROTOCOL: NCI tumour cell line growth inhibition, 48 h

Q: Give the reported TGI for `O=C(N/C(=C\c1ccc(/C=C(\NC(=O)c2ccccc2)c2nc3cc([N+](=O)[O-])ccc3[nH]2)cc1)c1nc2cc([N+](=O)[O-])ccc2[nH]1)c1ccccc1` (system: 786-0 renal).
Ans: > 100 µM

Q: Record: `CN(C)CC[N+]1=Nc2cccc3cccc(c23)N1`
Ans: > 100 µM

Q: Record: `CCOC(=O)c1c2ccccc2n2c(N)c(C(N)=O)nnc12`
Ans: > 100 µM

Q: Record: `NC(=O)c1cccc2cn(-c3ccc([C@@H]4CCCNC4)cc3)nc12`
Ans: 33 µM

Q: Record: `COc1cc2c(cc1OC)C(c1ccccc1CCCCl)=NCC2`
Ans: > 100 µM

Q: Record: `C(/c1ccco1)=c1/nc(-c2ccccc2)n2c1nc1ccccc12`
Ans: > 100 µM

Q: Record: `Cc1nc(C(N)=S)sc1/C(CC(=O)C(=O)Nc1cccc2ccc(O)cc12)=N\NC(=O)c1ccncc1`
Ans: > 100 µM

Q: Record: OCc1ccc(N2CCC2c2ccc(F)cc2)cc1Cl (configuration not stated)
Ans: > 61.5 µM

Q: Record: `CC(C)/C(Cl)=N\OC(=O)Nc1ccc(S(N)(=O)=O)cc1`
Ans: 31 µM

Q: Record: `COc1ccc2c(c1)/C(=C/c1c(C)nc3sc(C)nn13)C(=O)N2`
Ans: > 100 µM

Q: Record: `[N-]=[N+]=Nc1cc(=O)oc2ccccc12`
Ans: > 100 µM

Q: Record: `O=C1/C(=C/c2ccccc2)CN(C(=O)C(Cl)(Cl)Cl)C/C1=C\c1ccccc1`
Ans: 9.42 µM

Q: Record: `CCNC(=S)N/N=C/c1cc([N+](=O)[O-])ccc1O`
Ans: > 100 µM

Q: Record: `O=C(O)CCc1coc2ccc(O)cc12`
Ans: > 100 µM

Q: Record: `Cc1ccc(N=Nc2ccc(N(CCC#N)CCC#N)cc2C)c(Br)c1`
Ans: 61.5 µM

Q: Record: `O=C(Cc1cccs1)N[C@@H]1C(=O)N2C(C(=O)OC(c3ccccc3)c3ccccc3)=C(CO)CS[C@H]12`
Ans: > 100 µM

Q: Record: `Nc1cccc2cc(Cl)cnc12`
Ans: > 100 µM

Q: Record: CSc1nc2c(c(=O)[nH]1)N=C1c3ccccc3C(=O)C1C(c1ccccc1)N2 (configuration not stated)
Ans: > 100 µM

Q: Record: COC(=O)CC1CCN(C#N)CC1CC[N+](=O)[O-] (configuration not stated)
Ans: > 100 µM

Q: Record: CC(C)C1/C(=N/O)CC(c2ccccc2)N(N=O)C1c1ccccc1 (configuration not stated)
Ans: > 100 µM

Q: Record: `O=c1[nH][nH]c(=O)n1Cc1ccccc1Cn1c(=O)[nH][nH]c1=O`
Ans: > 100 µM

Q: Record: COc1ccc(C(OCC2OC(n3cc(C)c(=O)[nH]c3=O)CC2n2cc(Cn3cc(I)c(=O)[nH]c3=O)nn2)(c2ccccc2)c2ccccc2)cc1 (configuration not stated)
Ans: > 100 µM

The reported numbers originate from PubChem BioAssay (NCI).
